# procedure-details: in vitro
# settings: male, human, human saliva
measured-metric: recovery at 0 min, 5 mg/mL (%)
The figure you give is taken to be in %; do not add the unit.

Exam item: For the compound CNC[C@H](O)c1ccc(O)c(O)c1 [Epi, Epinephrine] , report recovery at 0 min, 5 mg/mL.
Marked response: 100

* * *

# procedure-details: in vitro
# settings: male, human, human saliva
measured-metric: recovery at 30 min, 5 mg/mL (%)
The figure you give is taken to be in %; do not add the unit.

Exam item: For the compound CNC[C@H](O)c1ccc(O)c(O)c1 [Epi, Epinephrine] , report recovery at 30 min, 5 mg/mL.
Marked response: 84
